Can you tell me melting point for the items I'm about to list?

Prompt: State the recorded melting point for this entry: N#Cc1c(-c2ccc(Br)cc2)nc(SCC(=O)N2CCN(c3cc4c(cc3F)c(=O)c(C(=O)O)cn4C3CC3)CC2)[nH]c1=O [Compound 5d]
Completion: 284 to 285 °C

Prompt: State the recorded melting point for this entry: Cc1ccc(-c2nc(SCC(=O)N3CCN(c4cc5c(cc4F)c(=O)c(C(=O)O)cn5C4CC4)CC3)[nH]c(=O)c2C#N)cc1 [Compound 5f]
Completion: 264 to 267 °C

Prompt: State the recorded melting point for this entry: COc1ccc(-c2nc(SCC(=O)N3CCN(c4cc5c(cc4F)c(=O)c(C(=O)O)cn5C4CC4)CC3)[nH]c(=O)c2C#N)cc1OC [Compound 5h]
Completion: 266 to 269 °C

Prompt: State the recorded melting point for this entry: COc1cc(-c2nc(SCC(=O)N3CCN(c4cc5c(cc4F)c(=O)c(C(=O)O)cn5C4CC4)CC3)[nH]c(=O)c2C#N)cc(OC)c1OC [Compound 5i]
Completion: 284 to 285 °C

Prompt: State the recorded melting point for this entry: COc1ccc(-c2nc(SCC(=O)N3CCN(c4cc5c(cc4F)c(=O)c(C(=O)O)cn5C4CC4)CC3)[nH]c(=O)c2C#N)cc1 [Compound 5g]
Completion: 239 to 242 °C

Prompt: State the recorded melting point for this entry: N#Cc1c(-c2ccc(F)cc2)nc(SCC(=O)N2CCN(c3cc4c(cc3F)c(=O)c(C(=O)O)cn4C3CC3)CC2)[nH]c1=O [Compound 5e]
Completion: 242 to 245 °C

Prompt: State the recorded melting point for this entry: N#Cc1c(-c2ccccc2)nc(SCC(=O)N2CCN(c3cc4c(cc3F)c(=O)c(C(=O)O)cn4C3CC3)CC2)[nH]c1=O [Compound 5a]
Completion: 237 to 240 °C

Prompt: State the recorded melting point for this entry: N#Cc1c(-c2cccc(Cl)c2)nc(SCC(=O)N2CCN(c3cc4c(cc3F)c(=O)c(C(=O)O)cn4C3CC3)CC2)[nH]c1=O [Compound 5b]
Completion: 248 to 251 °C

Prompt: State the recorded melting point for this entry: N#Cc1c(-c2ccc(Cl)cc2)nc(SCC(=O)N2CCN(c3cc4c(cc3F)c(=O)c(C(=O)O)cn4C3CC3)CC2)[nH]c1=O [Compound 5c]
Completion: 253 to 256 °C

###

# Experimental Details: Solubility determination in phosphate buffer
# Assay type: physicochemical
# Condition Info: aqueous buffer, thermodynamic from solid; phosphate buffer pH 6.8, 37 °C; read-out: Solubility pH 6.8
Can you tell me solubility at 48 h for the items I'm about to list?
# unit: µg/mL | format: bare number

Prompt: State the recorded solubility at 48 h for this entry: COc1ccc(-c2nc(SCC(=O)N3CCN(c4cc5c(cc4F)c(=O)c(C(=O)O)cn5C4CC4)CC3)[nH]c(=O)c2C#N)cc1 [Compound 5g]
Completion: 740

Prompt: State the recorded solubility at 48 h for this entry: O=C(/C=C/c1ccc(Br)cc1)c1ccc(NC(=O)N2CCN(c3cc4c(cc3F)c(=O)c(C(=O)O)cn4C3CC3)CC2)cc1 [Compound 2d]
Completion: 140

Prompt: State the recorded solubility at 48 h for this entry: COc1cc(/C=C/C(=O)c2ccc(NC(=O)N3CCN(c4cc5c(cc4F)c(=O)c(C(=O)O)cn5C4CC4)CC3)cc2)cc(OC)c1OC [Compound 2j]
Completion: 180

Prompt: State the recorded solubility at 48 h for this entry: O=C(/C=C/c1cccc(Cl)c1)c1ccc(NC(=O)N2CCN(c3cc4c(cc3F)c(=O)c(C(=O)O)cn4C3CC3)CC2)cc1 [Compound 2b]
Completion: 160

Prompt: State the recorded solubility at 48 h for this entry: Cc1ccc(/C=C/C(=O)c2ccc(NC(=O)N3CCN(c4cc5c(cc4F)c(=O)c(C(=O)O)cn5C4CC4)CC3)cc2)cc1 [Compound 2f]
Completion: 160

Prompt: State the recorded solubility at 48 h for this entry: O=C(/C=C/c1ccccc1)c1ccc(NC(=O)N2CCN(c3cc4c(cc3F)c(=O)c(C(=O)O)cn4C3CC3)CC2)cc1 [Compound 2a]
Completion: 210

Prompt: State the recorded solubility at 48 h for this entry: O=C(/C=C/c1ccc(Cl)cc1)c1ccc(NC(=O)N2CCN(c3cc4c(cc3F)c(=O)c(C(=O)O)cn4C3CC3)CC2)cc1 [Compound 2c]
Completion: 130

Prompt: State the recorded solubility at 48 h for this entry: COc1ccc(/C=C/C(=O)c2ccc(NC(=O)N3CCN(c4cc5c(cc4F)c(=O)c(C(=O)O)cn5C4CC4)CC3)cc2)cc1OC [Compound 2i]
Completion: 150

Prompt: State the recorded solubility at 48 h for this entry: CN(C)c1ccc(/C=C/C(=O)c2ccc(NC(=O)N3CCN(c4cc5c(cc4F)c(=O)c(C(=O)O)cn5C4CC4)CC3)cc2)cc1 [Compound 2h]
Completion: 680

Prompt: State the recorded solubility at 48 h for this entry: O=C(/C=C/c1ccc(F)cc1)c1ccc(NC(=O)N2CCN(c3cc4c(cc3F)c(=O)c(C(=O)O)cn4C3CC3)CC2)cc1 [Compound 2e]
Completion: 160

###

Can you tell me MIC for the items I'm about to list?
# Test system: E. coli (ATCC 8739)
# Experimental Details: Antibacterial MIC, standard agar cup diffusion method
# Assay type: cell-based
# Condition Info: Escherichia coli, ATCC8739, 37 °C, 24 h, read-out: MIC E. coli (Gram-negative)
# unit: µg/mL | format: bare number

Prompt: State the recorded MIC for this entry: COc1ccc(-c2nc(SCC(=O)N3CCN(c4cc5c(cc4F)c(=O)c(C(=O)O)cn5C4CC4)CC3)[nH]c(=O)c2C#N)cc1
Completion: 14.2

Prompt: State the recorded MIC for this entry: N#Cc1c(-c2ccc(F)cc2)nc(SCC(=O)N2CCN(c3cc4c(cc3F)c(=O)c(C(=O)O)cn4C3CC3)CC2)[nH]c1=O
Completion: 0.52

Prompt: State the recorded MIC for this entry: CC(=O)c1ccc(NC(=O)N2CCN(c3cc4c(cc3F)c(=O)c(C(=O)O)cn4C3CC3)CC2)cc1
Completion: 0.6

Prompt: State the recorded MIC for this entry: O=C(/C=C/c1ccc(Cl)cc1)c1ccc(NC(=O)N2CCN(c3cc4c(cc3F)c(=O)c(C(=O)O)cn4C3CC3)CC2)cc1
Completion: 0.34

Prompt: State the recorded MIC for this entry: O=C(/C=C/c1cccc(Cl)c1)c1ccc(NC(=O)N2CCN(c3cc4c(cc3F)c(=O)c(C(=O)O)cn4C3CC3)CC2)cc1
Completion: 0.18

Prompt: State the recorded MIC for this entry: N#Cc1c(-c2cccc(Cl)c2)nc(SCC(=O)N2CCN(c3cc4c(cc3F)c(=O)c(C(=O)O)cn4C3CC3)CC2)[nH]c1=O
Completion: 0.12

Prompt: State the recorded MIC for this entry: COc1cc(-c2nc(SCC(=O)N3CCN(c4cc5c(cc4F)c(=O)c(C(=O)O)cn5C4CC4)CC3)[nH]c(=O)c2C#N)cc(OC)c1OC
Completion: 0.63

Prompt: State the recorded MIC for this entry: N#Cc1c(-c2ccc(Br)cc2)nc(SCC(=O)N2CCN(c3cc4c(cc3F)c(=O)c(C(=O)O)cn4C3CC3)CC2)[nH]c1=O
Completion: 42.2

Prompt: State the recorded MIC for this entry: COc1ccc(/C=C/C(=O)c2ccc(NC(=O)N3CCN(c4cc5c(cc4F)c(=O)c(C(=O)O)cn5C4CC4)CC3)cc2)cc1OC
Completion: 4.13

Prompt: State the recorded MIC for this entry: COc1ccc(/C=C/C(=O)c2ccc(NC(=O)N3CCN(c4cc5c(cc4F)c(=O)c(C(=O)O)cn5C4CC4)CC3)cc2)cc1
Completion: 17

Prompt: State the recorded MIC for this entry: Cc1ccc(-c2nc(SCC(=O)N3CCN(c4cc5c(cc4F)c(=O)c(C(=O)O)cn5C4CC4)CC3)[nH]c(=O)c2C#N)cc1
Completion: 3.89

Prompt: State the recorded MIC for this entry: COc1cc(/C=C/C(=O)c2ccc(NC(=O)N3CCN(c4cc5c(cc4F)c(=O)c(C(=O)O)cn5C4CC4)CC3)cc2)cc(OC)c1OC
Completion: 5.13

Prompt: State the recorded MIC for this entry: N#Cc1c(-c2ccccc2)nc(SCC(=O)N2CCN(c3cc4c(cc3F)c(=O)c(C(=O)O)cn4C3CC3)CC2)[nH]c1=O
Completion: 0.91

Prompt: State the recorded MIC for this entry: O=C(/C=C/c1ccccc1)c1ccc(NC(=O)N2CCN(c3cc4c(cc3F)c(=O)c(C(=O)O)cn4C3CC3)CC2)cc1
Completion: 0.64

Prompt: State the recorded MIC for this entry: N#Cc1c(-c2ccc(Cl)cc2)nc(SCC(=O)N2CCN(c3cc4c(cc3F)c(=O)c(C(=O)O)cn4C3CC3)CC2)[nH]c1=O
Completion: 1.03

Prompt: State the recorded MIC for this entry: O=C(/C=C/c1ccc(F)cc1)c1ccc(NC(=O)N2CCN(c3cc4c(cc3F)c(=O)c(C(=O)O)cn4C3CC3)CC2)cc1
Completion: 0.53

Prompt: State the recorded MIC for this entry: CN(C)c1ccc(/C=C/C(=O)c2ccc(NC(=O)N3CCN(c4cc5c(cc4F)c(=O)c(C(=O)O)cn5C4CC4)CC3)cc2)cc1
Completion: 5.25

Prompt: State the recorded MIC for this entry: O=C(/C=C/c1ccc(Br)cc1)c1ccc(NC(=O)N2CCN(c3cc4c(cc3F)c(=O)c(C(=O)O)cn4C3CC3)CC2)cc1
Completion: 4.78

Prompt: State the recorded MIC for this entry: O=C(O)c1cn(C2CC2)c2cc(N3CCNCC3)c(F)cc2c1=O [Ciprofloxacin, reference compound]
Completion: 0.15

Prompt: State the recorded MIC for this entry: COc1ccc(-c2nc(SCC(=O)N3CCN(c4cc5c(cc4F)c(=O)c(C(=O)O)cn5C4CC4)CC3)[nH]c(=O)c2C#N)cc1OC
Completion: 0.21

Prompt: State the recorded MIC for this entry: Cc1ccc(/C=C/C(=O)c2ccc(NC(=O)N3CCN(c4cc5c(cc4F)c(=O)c(C(=O)O)cn5C4CC4)CC3)cc2)cc1
Completion: 9.33
